Quick list: z-score per entry.
Target: NADPH oxidase 2 (Homo sapiens) (UniProt P04839)
Sequence (P04839 whole entry, looked up): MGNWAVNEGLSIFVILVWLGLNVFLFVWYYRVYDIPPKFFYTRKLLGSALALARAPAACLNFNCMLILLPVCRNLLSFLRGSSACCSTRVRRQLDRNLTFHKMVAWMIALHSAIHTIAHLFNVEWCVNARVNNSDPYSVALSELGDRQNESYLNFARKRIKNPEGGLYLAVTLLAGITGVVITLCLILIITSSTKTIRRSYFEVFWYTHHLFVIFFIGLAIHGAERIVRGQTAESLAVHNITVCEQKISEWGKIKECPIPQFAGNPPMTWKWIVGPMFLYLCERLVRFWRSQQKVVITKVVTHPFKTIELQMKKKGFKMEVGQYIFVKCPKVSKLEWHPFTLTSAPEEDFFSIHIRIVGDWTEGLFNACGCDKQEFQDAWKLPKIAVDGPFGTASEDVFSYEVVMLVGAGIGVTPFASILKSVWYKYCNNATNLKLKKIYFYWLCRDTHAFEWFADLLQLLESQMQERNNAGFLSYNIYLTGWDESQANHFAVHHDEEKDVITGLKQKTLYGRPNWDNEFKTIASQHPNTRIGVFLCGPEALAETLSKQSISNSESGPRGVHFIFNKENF
Assay: compounds shifting NOX2 Amplex Red fluorescence – cell-based, HEK293-NOX2, PMA-stimulated, NOX inhibitor project, primary screen (AID 1159); note: test concentration not given here
Settings: 45 min, higher = more signal, called active from +8 up or from −8 down
Answer with a bare number; do not write a unit.

The examples below pair each entry with its known result.
compound	z-score
CN(C)CCCCNC(=O)[C@H]1C[C@H]2C(=O)N[C@@H](CCCC[N+](C)(C)C)C(=O)N2[C@H]1c1cccc(OCCO)c1	2.19
COCCCNC(=O)[C@@]1(Cc2ccccc2CN=[N+]=[N-])N=C(c2ccc(OCCCO)cc2)O[C@H]1c1ccccc1N=[N+]=[N-]	0.0139
CC(C)CNC(=O)[C@@]1(c2ccc([N+](=O)[O-])cc2)CC(=O)N(C(C)C)[C@@H]1c1ccc(CO)cc1	-0.145
CCCc1cc2c(n1Cc1ccc(OC)cc1)C(C)C1CN(C(=O)c3ccccc3)C(C)(C(=O)OC)C21 (stereo not given)	-1.55

Exercise: Returns the measured z-score for the input compound. Input: COc1ccc([Si](C)(C)[C@@H]2[C@@H](CCO)O[C@]3(C(=O)N(Cc4ccc(N5C(=O)c6ccccc6Oc6ccccc65)cc4)c4ccccc43)[C@H]2C)cc1
Key: 0.0702

Exercise: Please answer likewise for CO[C@H]1O[C@H](CO)[C@@H](OC(=O)c2ccc(Br)cc2)[C@@H]2OC(=O)[C@H](Cc3cccc(Br)c3)C/C=C/C[C@@H](Cc3cccc(Br)c3)C(=O)O[C@@H]12
Key: -0.129

Exercise: Please answer likewise for CC(C)C(CO)N1C(=O)[C@@H]2[C@H]3C(=O)OCC=C[C@H]3OC23C=CCN(Cn2nnc4ccccc42)C(=O)[C@@H]13 (stereo not given in full)
Key: 0.699

Exercise: Please answer likewise for O=C1N(Cc2ccccc2)c2ccccc2[C@H]2OC(c3ccc(OCCCO)cc3)=N[C@@]12CCS(=O)(=O)c1ccccc1
Key: -0.596

Exercise: Please answer likewise for COC(=O)[C@@]1(Cc2ccc(OC)cc2)[C@H]2c3cc(C(=O)N(C)C)n(CCF)c3C[C@H]2CN1C(=O)c1ccccc1
Key: 0.605

====

Quick list: composite z-score per entry.
Experiment: small molecules captured by biotinylated probe aFST – biochemical, small-molecule microarray, fluorescence 635/667, stem cell growth factor project, primary screen (AID 1086);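 note: score merges 667 nm fluorescence with signal-to-noise of each printed compound spot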
Details: higher = more signal

Exercise: Returns the measured composite z-score for the input molecule. Input: COC(=O)[C@@]1(Cc2ccc(OC)cc2)[C@H]2c3cc(C(=O)N4CCCC4)n(CCc4ccc(O)c(OC)c4)c3C[C@H]2CN1C(=O)c1ccccc1
Key: 0.603

Exercise: Please answer likewise for O=C1O[C@@H](c2ccccc2)[C@@H](c2ccccc2)N2[C@@H](c3ccc(O)cc3)[C@]3(C(=O)Nc4ccc(C#CC5=CCCCC5)cc43)[C@@H](C(=O)Nc3nc4ccccc4s3)[C@H]12
Key: 0.647

Exercise: Please answer likewise for CCCC=C(CCC)[C@@H](NS(=O)(=O)c1cccc2cccnc12)c1ccc(C(=O)OC)cc1
Key: 3.43

Exercise: Please answer likewise for COCCOC(=O)N1C(=O)[C@@]2(c3cc(C#CCCO)ccc31)[C@H](C(=O)N1CCc3cc(OC)c(OC)cc3C1)[C@H]1C(=O)O[C@H](c3ccccc3)[C@H](c3ccccc3)N1[C@@H]2c1ccc(OCCO)cc1
Key: 0.242

Exercise: Please answer likewise for CC(C)N1C(=O)c2ccccc2[C@](C)(C(=O)O)[C@@H]1c1ccc(CO)cc1
Key: 0.112

Exercise: Please answer likewise for CC1CC/C=C\[C@H]2OC34C=CCN(c5ccc(Cl)cc5)C(=O)[C@H]3N(C(CO)C(C)C)C(=O)[C@]4(C)C2C(=O)O1 (stereo partly specified)
Key: -0.637

====

Assay: probe aDKK1 binding to arrayed compounds – biochemical, biotinylated probe, 635/667 nm fluorescence, primary screen (AID 1099);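 note: score merges 667nm spot fluorescence with signal to noise across triplicate slides; reference of the scale not given here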
Details: small-molecule microarray, higher = more signal
Classification field. Basis: composite z-score. Definitions: b0: < 0.1; b1: ≥ 0.1 and < 0.4; b2: ≥ 0.4

Examples with answers:
molecule	assigned-category
COC(=O)C(CC#Cc1ccc2c(c1)[C@]1(C(=O)N2)[C@H](c2ccccc2OCCO)N2[C@H](c3ccccc3)[C@H](c3ccccc3)OC(=O)[C@H]2[C@@H]1C(=O)Nc1nc2ccccc2s1)C(=O)OC	b0
[N-]=[N+]=Nc1ccccc1[C@H]1OC(c2ccc(OCCCO)cc2)=N[C@@]1(Cc1ccccc1)C(=O)NCc1ccccc1	b1
CCCC=C(CCC)[C@@H](NS(=O)(=O)c1ccccc1)c1ccc(C(F)(F)F)cc1	b2
C#CCNS(=O)(=O)N(C)C	b0
NC(=O)NCC#Cc1ccc2c(c1)[C@]1(C(=O)N2)[C@H](c2ccc(OCCO)cc2)N2[C@H](c3ccccc3)[C@H](c3ccccc3)OC(=O)[C@H]2[C@@H]1C(=O)N1CCCCCCC1	b2
O=C1c2ccccc2[C@](Cc2ccccc2I)(C(=O)NC2CC2)[C@H](c2ccc(CO)cc2)N1Cc1ccccc1Cl	b2

Exercise: Which bin should I file CC1(C)[C@@H]2CC(C(O)C3C=CC4C(=O)N(c5ccccc5)C(=O)C4N3Nc3ccccc3F)=C[C@@H]1C2 (some centres undefined) under?
Key: b1

Exercise: Please answer likewise for COC(=O)[C@]1(Cc2ccccc2N=[N+]=[N-])N=C(c2ccc(OCCCO)cc2)O[C@@H]1c1ccccc1
Key: b2

Exercise: Please answer likewise for CCN(CC)c1ccc(N2CC=CC34O[C@@H]5/C=C\CCCOC(=O)C5[C@H]3C(=O)N(CCCCCO)[C@@H]4C2=O)cc1 (some centres undefined)
Key: b1

Exercise: Please answer likewise for O=C1O[C@@H](c2ccccc2)[C@@H](c2ccccc2)N2[C@@H](c3ccc(O)cc3)[C@]3(C(=O)Nc4ccc(C#CC5=CCCCC5)cc43)[C@@H](C(=O)Nc3nc4ccccc4s3)[C@H]12
Key: b1

Exercise: Please answer likewise for CC[C@@H]1[C@@H]2C3C(=O)N(CC)C(=O)C3CC(=O)[C@@H]2[C@H](c2ccc(C)cc2)N1S(=O)(=O)c1ccc(C)cc1 (some centres undefined)
Key: b1

Exercise: Please answer likewise for C=C(COC)C(=O)CC[C@H](OC(=O)c1ccccc1-c1ccccc1C(=O)O)c1ccc(CO)o1
Key: b0

====

Quick list: z-score per entry.
Assay: compound effects on hepatocellular carcinoma cell viability – HepG2, calcein-AM fluorescence, 48 h, basal, profiling panel (AID 1164); note: test concentration not given here
Details: higher = more signal

The examples below pair each entry with its known result.
compound	z-score
COc1cc2c(cc1OC)CN(C(=O)[C@@H]1[C@H]3C(=O)O[C@H](c4ccccc4)[C@H](c4ccccc4)N3[C@H](c3ccc(OCCO)cc3)[C@@]13C(=O)Nc1ccc(C#CCCO)cc13)CC2	-0.857
COc1ccccc1CN1C(=O)c2ccccc2[C@](Cc2ccccc2I)(C(=O)NCCN2CCOCC2)[C@@H]1c1ccc(CO)cc1	1.26

Turning to the following compound.
Exercise: Returns the measured z-score for the input compound. Input: CC(C)CCC[C@@H](C)[C@H]1CC[C@@]2(C)C3=C(CC[C@]12C)[C@@]1(C)CC[C@H](OC(=O)C(C)(C)C)C(C)(C)C1CC3 (stereo partly drawn)
Key: 1.12

====

Test system: Sam68 (KHDRBS1)
Assay: compounds binding KHDRBS1 protein – biochemical, small-molecule microarray, 635 nm fluorescence, primary screen (AID 1125);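 note: score merges 667 nm channel intensity with signal to noise over triplicate slides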
Conditions: higher = more signal
Quick list: composite z-score per entry.
Answer with a bare number; do not write a unit.

compound	test-result
COC(=O)C(CC#Cc1ccc2c(c1)[C@]1(C(=O)N2)[C@H](c2ccc(O)cc2)N2[C@H](c3ccccc3)[C@H](c3ccccc3)OC(=O)[C@H]2[C@@H]1C(=O)O)C(=O)OC	0.318
C=C(/C(=C/C[C@@H](OC(=O)c1ccncc1)c1cccc(OCCO)c1)c1cc(C(=O)OC)ccc1OC)C(C)C	1.21
CC(C)N1C(=O)c2ccccc2[C@](C)(C(=O)O)[C@@H]1c1ccc(CO)cc1	-0.769

Exercise: Returns the measured composite z-score for the input compound. Input: [N-]=[N+]=Nc1ccccc1[C@@H]1OC(c2ccc(OCCCO)cc2)=N[C@]1(CCS(=O)(=O)c1ccccc1)C(=O)NCc1ccccc1
Key: 1.29

Exercise: Please answer likewise for C=CCC(OC(C)=O)[C@@H]1[C@@H](N(Cc2cccc3ccccc23)C(=O)c2ccc(C)cc2)c2cc(OCCCO)ccc2N1C(=O)c1ccc2ccccc2c1 (stereo partly specified)
Key: -0.044

Exercise: Please answer likewise for COCCOC(=O)N1C(=O)[C@@]2(c3cc(C#Cc4ccc(OC)cc4)ccc31)[C@H](C(N)=O)[C@H]1C(=O)O[C@H](c3ccccc3)[C@H](c3ccccc3)N1[C@@H]2c1ccc(OCCO)cc1
Key: 1.3

====

Test: JC-1 mitochondrial signal, unstimulated MM1S myeloma – cell-based, JC-1 fluorescence, 24 h, 100 nL compound, profiling panel (AID 1170); note: test concentration not given here
Settings: MM1S mitochondrial potential, higher = more signal
Quick list: z-score per entry.
Answer with a bare number; do not write a unit.

Exercise: Returns the measured z-score for the input compound. Input: CCOC(=O)C[C@H]1[C@H](OC(=O)c2ccccc2-c2ccccc2)[C@@H](NC(=O)c2ccccc2)c2cc(OCCCO)ccc2N1C(=O)Cc1ccc(OC)cc1
Key: 0.277

Exercise: Please answer likewise for CC1CC/C=C\[C@H]2OC34C=CCN(Cc5ccccc5)C(=O)[C@H]3N(CCO)C(=O)[C@@H]4C2C(=O)O1 (stereo partly specified)
Key: 2.1

Exercise: Please answer likewise for O=C1O[C@@H](c2ccccc2)[C@@H](c2ccccc2)N2[C@@H](c3ccc(O)cc3)[C@]3(C(=O)Nc4ccc(C#CC5=CCCCC5)cc43)[C@@H](C(=O)Nc3nc4ccccc4s3)[C@H]12
Key: -1.02

Exercise: Please answer likewise for COc1ccc([Si](C)(C)[C@@H]2[C@@H](CC(=O)N3Cc4ccccc4C[C@H]3CO)O[C@]3(C(=O)N(Cc4cccc(N5CCCCC5=O)c4)c4ccccc43)[C@H]2C)cc1
Key: -0.398

Exercise: Please answer likewise for Cc1ccc(S[C@]2(C(=O)O)CC(=O)N(Cc3ccccc3C(F)(F)F)[C@@H]2c2ccc(CO)cc2)cc1
Key: -0.446

Exercise: Please answer likewise for COC(=O)[C@@]1(Cc2ccc(F)cc2)[C@H]2c3cc(C(=O)N4CCCC4)n(Cc4ccccc4)c3C[C@H]2CN1C(=O)c1ccccc1
Key: -0.759
